The reader will find reported pIC50 values listed item by item below.
Tested on: Phospho-ERK1/2(THR202/TYR204) in NCI-H358 cells express KRAS G12C
Assay: Phospho-ERK1/2(THR202/TYR204) HTRF assay
Format: cell-based
Settings: Homo sapiens; NCI-H358, 2 hours incubation; read-out: p-ERK inhibition in NCI-H358 IC50
# pIC50: negative log10 of molar concentration; output just the value

Would you please look over these solved cases?
{"COMPOUND": "C=CC(=O)N1CCN(c2nc(OCC3(CN4CCC4)CC3)nc3c2CCN(c2cccc4ccccc24)C3)CC1CC#N (stereo not drawn)", "STUDY_SYSTEM": "Phospho-ERK1/2(THR202/TYR204) in NCI-H358 cells express KRAS G12C", "PROPERTY_NAME": "pIC50", "OBSERVED": 6.83}
{"COMPOUND": "Cc1cccc2cccc(N3CCc4c(nc(OCC5(CN6CCCC6)CC5)nc4N4CCN(C(=O)/C=C/CN(C)C)C(CC#N)C4)C3)c12 (stereo not drawn)", "STUDY_SYSTEM": "Phospho-ERK1/2(THR202/TYR204) in NCI-H358 cells express KRAS G12C", "PROPERTY_NAME": "pIC50", "OBSERVED": 6.88}

Read the next record carefully.
Q: Lab request: please report pIC50 under test system Phospho-ERK1/2(THR202/TYR204) in NCI-H358 cells express KRAS G12C for C=CC(=O)N1CCN(c2nc(OCC3CCCC3N(C)C)nc3c2CCN(c2cccc4cccc(C)c24)C3)CC1CC#N (stereo not drawn)
Ans: 6.95
